- Tested on: NCI/ADR-RES ovarian
- assay_summary: NCI-60 one-dose screen, 48 h
- assay_setup: 10 µM unless noted
About 83,000 compounds went through this panel and 20% of them were active in at least one assay; those are over-represented in the sample as a whole. Activity calls are given as the source filed them. How the source made its calls: active means growth percent below 10; inactive means the rest.
Outcomes: YES = active, NO = inactive

molecule	measurement_target	class_label
C#C[C@@]1(O)[C@@H](CO)O[C@@H](n2cc(Br)c3c(N)ncnc32)[C@@H]1O	NCI/ADR-RES ovarian	YES
N#Cc1c(-c2ccc(Cl)cc2)cc(-c2cc3ccccc3o2)nc1SCC(=O)c1ccc(Cl)cc1	NCI/ADR-RES ovarian	NO
CC(=O)Oc1c2c(nc3c1c1ccccc1n3Cc1ccccc1)-c1ccccc1C2	NCI/ADR-RES ovarian	NO
O=C(NC[C@H](O)CN1CCc2ccccc2C1)c1cc(NC2COC2)ncn1	NCI/ADR-RES ovarian	NO
CCCCn1c(=O)c(/C=C/C(=O)/C=C/c2cc3ccccc3n(CCCC)c2=O)cc2ccccc21	NCI/ADR-RES ovarian	NO
CNS(=O)(=O)c1cccc(-c2ccc3c4c(n(C)c(=O)c3c2)-c2ccccc2C4=O)c1	NCI/ADR-RES ovarian	NO
c1cc(CNC23CC4CC(CC(C4)C2)C3)cc(C[N+](Cc2cccc(CNC34CC5CC(CC(C5)C3)C4)c2)(Cc2cccc(CNC34CC5CC(CC(C5)C3)C4)c2)Cc2cccc(CNC34CC5CC(CC(C5)C3)C4)c2)c1 (configuration not stated)	NCI/ADR-RES ovarian	NO
O=C1c2ccccc2C(=O)c2c1oc1c2c(=O)[nH]c2ccc(Cl)cc21	NCI/ADR-RES ovarian	NO
COc1ccc(-c2cn(-c3ccc(Cl)cc3)c(=S)[nH]2)cc1OC	NCI/ADR-RES ovarian	NO
COc1cc(NC(=O)c2cc(O)c(C/C=C(\C)CCC=C(C)C)c(O)c2)cc2c1O[C@]1(C)CC[C@@H](O)C(C)(C)[C@H]1C2	NCI/ADR-RES ovarian	NO
COCCOCCOCc1n(Cc2ccc3ccccc3c2)c2ccccc2[n+]1Cc1ccc2ccccc2c1	NCI/ADR-RES ovarian	NO
C=CCn1c(SCC(=O)Nc2ccc(C(=O)/C=C/c3ccc(Cl)cc3)cc2)nnc1-c1cc(OC)c(OC)c(OC)c1	NCI/ADR-RES ovarian	NO
CC[C@]12C=CCN3CC[C@@]4(c5cc(NC(=O)CCC(=O)O[C@H]6CC[C@H]7[C@@H]8CC[C@H]9CC(=O)CC[C@]9(C)[C@H]8CC[C@]67C)c(OC)cc5N(C)[C@H]4[C@@](O)(C(=O)OC)[C@@H]1OC(C)=O)[C@@H]32	NCI/ADR-RES ovarian	NO
Nc1c(C(=O)Nc2ccccn2)sc2nc3c(cc12)CCCCC3	NCI/ADR-RES ovarian	YES
CNc1cccc2c1C(=O)c1cccc(N)c1C2=O	NCI/ADR-RES ovarian	NO
COc1ccc(-c2nc(C#N)c(NCC(c3ccc(Cl)cc3)N3CCCCC3)o2)cc1 (configuration not stated)	NCI/ADR-RES ovarian	NO
NC(=O)C(O)(c1ccccc1)c1ccccc1	NCI/ADR-RES ovarian	NO

###

- Tested on: A498 renal
- assay_summary: NCI-60 one-dose screen, 48 h
- assay_setup: 10 µM unless noted
This is part of a sample that, as a whole, favours compounds with a hit. Of some 83,000 tested, about 20% had one in any assay. Calls of active or inactive are those of the source. Rule for the calls: active = growth percent below 10; inactive = the rest.
Labels: active, inactive

compound	class_label
O=CN1N=C(c2ccc(Cl)cc2)CC1c1cccc(Nc2ccnc3cc(C(F)(F)F)ccc23)c1 (stereo not given)	inactive
Cn1c2c(c3ccc(-c4ccn[nH]4)cc3c1=O)C(=O)c1ccccc1-2	inactive
Cc1cc(O)cc(O)c1N=NC1=NCCS1	active
Cc1[nH]c2ncnc(Oc3ccc(NC(=O)Nc4ccc(Cl)c(C(F)(F)F)c4)cc3)c2c1C	inactive
CCN(CC)c1ccc2c(c1)Oc1nc(N)c(C#N)c(N)c1C2Sc1ccc(OC)cc1 (stereo not given)	inactive
CC(C)NS(=O)(=O)c1cccc(-c2ccc3c4c(n(CCCN(C)C)c(=O)c3c2)-c2ccccc2C4=O)c1	inactive
c1cc(CNC23CC4CC(CC(C4)C2)C3)cc(C[N+](Cc2cccc(CNC34CC5CC(CC(C5)C3)C4)c2)(Cc2cccc(CNC34CC5CC(CC(C5)C3)C4)c2)Cc2cccc(CNC34CC5CC(CC(C5)C3)C4)c2)c1 (stereo not given)	inactive
N#CCNc1ccc(C(=O)O)cc1	inactive
CN(C)C(CNc1oc(-c2cccc3ccccc23)nc1C#N)c1ccco1 (stereo not given)	inactive
COc1ccc2cc(/C=C3\N=C(c4cc(OC)c(OC)c(OC)c4)OC3=O)c(OC)nc2c1	inactive
COc1ccc(OCC(=O)OC(C)C)cc1	inactive
Cc1cnc(SCc2ccc(Cl)cc2)[nH]c1=S	inactive
Cc1c(Cl)cccc1NC(=O)c1sc2nc3c(cc2c1N)CCCCCC3	active
O=C(C[n+]1cccc2cc(Cl)ccc21)c1ccc2c(c1)CCCC2	inactive
Nc1cc(N)nc(SCC(=O)O)n1	inactive
O=C(Nc1cccc(-c2cccc(F)c2)c1)C1CCN(Cc2cccc3cccnc23)CC1	inactive
CCCS(=O)(=O)Nc1ccc(F)c(C(=O)c2c[nH]c3ncc(-c4ccc(OCCCC5CCCCN5)nc4)cc23)c1F (stereo not given)	inactive
C(=C\c1cn(-c2ccccc2)nc1-c1ccccc1)/c1nnc(-c2c[nH]c3ccccc23)o1	inactive
COc1ccc2nc(-c3ccc(Cl)cc3)cc(-c3nnc(SC/C(=N/O)c4ccccc4)o3)c2c1	inactive
CCCCCOC(=O)c1ccccc1O	inactive

###

- Tested on: KM12 colon
- assay_summary: NCI-60 one-dose screen, 48 h
- assay_setup: 10 µM unless noted
Compounds without any hit were thinned out: in the full panel of roughly 83,000, 20% have a hit. Active and inactive are the calls of the source. The calls were made as follows: active = growth percent below 10; inactive = the rest.
Possible outcomes: Y for active, N for inactive

compound	class_label
Cc1cnc(-c2ccc(-c3ccc(NC(=O)Nc4c(F)cc(F)cc4F)cc3F)c3c2C(=O)NC3)[nH]1	N
O=c1[nH]c2ccccc2cc1-c1nc2ccncc2[nH]1	N
O=C(Nc1ccc(S(=O)(=O)NC2CCCCCC2)cc1)C(c1ccccc1)S(=O)(=O)c1ccc(F)cc1 (centres undefined)	Y
CCC1=C[C@H]2CN(CCc3c([nH]c4ccccc34)[C@@](C(=O)OC)(c3cc4c(cc3OC)N(C)[C@H]3[C@@](O)(C(=O)OC)[C@H](OC(C)=O)[C@]5(CC)[C@@H]6C[C@@H]6CN6CC[C@]43[C@@H]65)C2)C1	N
CCOC(=O)c1c(C)nc2c(c1N)/C(=C/c1ccccn1)C(=O)N2Cc1ccccc1	N
O=C(CCl)N1CCCc2ccccc21	N
CC(/C=C/c1ccccc1)=N/NC(=O)c1ccncc1	N
COC(=O)/C=C1\SC(=Nc2ccc(C(F)(F)F)cc2)N(CCc2c[nH]c3ccccc23)C1=O	Y
Oc1ccc(CNNc2ccnc3c(O)cccc23)c2cccnc12	N
COc1ccc(/C=C/C(=O)c2ccc(NC(=O)CSc3nnc(-c4ccc(OC)c(OC)c4)n3-c3ccccc3)cc2)cc1	N
COc1ccc(C2C(c3ccccc3)C(=O)N2c2cc(OC)c(OC)c(OC)c2)cc1I (centres undefined)	N
O=c1[nH]nc(-c2ccccc2)c2sc(NC(=S)Nc3ccc(Cl)cc3)nc12	N
Fc1ccc(N/N=C/c2ccc(-n3cccn3)cc2)cc1	N
c1ccc(Sc2ncccn2)nc1	N
C=C(C)[C@@H]1CC[C@]2(C(=O)n3ccnc3)CC[C@]3(C)[C@H](CC[C@@H]4[C@@]5(C)CCCNC(C)(C)[C@@H]5CC[C@]43C)[C@@H]12	N
COc1ccc(C(=O)c2cc(OC)c(OC)c(OC)c2)cc1OC(=O)CCl	Y
CNC(=O)c1cc(Oc2ccc3c(c2)sc2nc(-c4ccc(NC(C)=O)cc4)cn23)ccn1	N
CCCNc1nc(C)[nH]c(=O)c1S	N
C[C@H](Oc1cc(-c2cnn(C3CCNCC3)c2)cnc1N)c1c(Cl)ccc(F)c1Cl	N

###

- Test system: SW-620 colon
- assay_summary: NCI-60 one-dose screen, 48 h (100 = growth as untreated, 0 = no growth, -100 = all killed)
- assay_setup: 10 µM unless noted
About 83,000 compounds went through this panel and 20% of them were active in at least one assay; those are over-represented in the sample as a whole. Activity calls are given as the source filed them. Rule for the calls: active = growth percent below 10; inactive = the rest.
measured_quantity: growth

>>> df
                                   molecule  measured_quantity            result
0  CN(C)C(CNc1oc(-c2cccc3ccccc23)nc1C#N)c1ccco1 (stereo not given)             growth   103% (inactive)
1                    Nc1cc(N)nc(SCC(=O)O)n1             growth   104% (inactive)
2  O=C1C(=O)c2c(nc3ccc(C(F)(F)F)cn23)-c2ccccc21             growth   -60.4% (active)
3  CCc1n(Cc2ccc3ccccc3c2)c2ccccc2[n+]1Cc1ccc2ccccc2c1             growth  77.1% (inactive)
4  OCCNc1nc(NCCO)nc(Nc2ccc(C3=NN(c4cc(Cl)cc(Cl)c4)C(c4ccccc4)C3)cc2)n1 (stereo not given)             growth    60% (inactive)
